Reported apparent KD of MS2 coat protein values for a set of sequences
# Test system: MS2 coat protein
# Measurement Protocol: apparent KD of MS2 coat protein; designed switch direction (-1 OFF switch, 1 ON switch): -1; higher = weaker reporter binding
# Measurement Setup: input ligand: FMN 200 uM
Readout: apparent KD of MS2 coat protein (nM)

{"columns": ["Polymer Sequence", "Target Or System", "Observed Value"],
 "data": [
  ["GAUCCGUUAGGAUAUACAGGAUUCACGCCUGAGUGAAUGUAGUAGAAGGAACAUGAGGAUCACCCAUGUGGUAU [Eternabot (L1) Solution 85] (Eterna round: R97, puzzle: Exclusion 4)", "MS2 coat protein", 83.2],
  ["CACUGGACAGGAUAUGUUCUUGAGCACUUGAGGAUCACCCAAGUCAUCAAGAACUCAGGCACAGAAGGGUUUAUGC [salish99_ex5_r4_012] (Eterna round: R97, puzzle: Exclusion 5)", "MS2 coat protein", 24.7],
  ["AGGUGAGCCGUCAGGAUAUGCGUUCCGUAGGGUCAGCAGAAGGGACAUGAGGAUCACCCAUGUUUCGCACGUGG [Veraxedi] (Eterna round: R96, puzzle: Brourd's mod of Exclusion 4)", "MS2 coat protein", 76.5],
  ["UAUAAAGGCUCAGGAUAUGGUGCGUCACAUGAGGAUCACCCAUGUAACGUGGCGGAACCUGCGCGCUAGAAGGGAGUAGCGAAA [Laensoqu] (Eterna round: R96, puzzle: Exclusion NG 2)", "MS2 coat protein", 8.44],
  ["AUAUUACAUGAGGAUCACCCAUGUGAGGAUAUGGAGCGAGACUGUCCUGUCGCGUACACCAGAAGGCGCGGGUG [1st #52] (Eterna round: R97, puzzle: Exclusion 1)", "MS2 coat protein", 183]
]}
